Molecular target: Mitogen-activated protein kinase kinase kinase 2 (Homo sapiens) + Dual specificity mitogen-activated protein kinase kinase 5 (Homo sapiens) (UniProt Q9Y2U5+Q13163)
Sequence (Q13163 whole entry, looked up): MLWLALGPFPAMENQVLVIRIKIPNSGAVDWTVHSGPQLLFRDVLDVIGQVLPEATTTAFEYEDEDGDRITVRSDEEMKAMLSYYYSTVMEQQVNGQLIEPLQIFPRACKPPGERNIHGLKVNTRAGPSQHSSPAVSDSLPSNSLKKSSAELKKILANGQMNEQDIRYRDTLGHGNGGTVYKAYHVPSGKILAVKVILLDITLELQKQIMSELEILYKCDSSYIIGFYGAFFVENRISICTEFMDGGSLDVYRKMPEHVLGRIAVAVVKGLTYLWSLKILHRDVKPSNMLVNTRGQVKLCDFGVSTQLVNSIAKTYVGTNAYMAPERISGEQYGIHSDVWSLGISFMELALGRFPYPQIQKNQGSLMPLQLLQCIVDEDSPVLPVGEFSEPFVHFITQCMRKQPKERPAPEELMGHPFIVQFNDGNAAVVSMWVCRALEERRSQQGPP
Sequence (Q9Y2U5 whole entry, looked up): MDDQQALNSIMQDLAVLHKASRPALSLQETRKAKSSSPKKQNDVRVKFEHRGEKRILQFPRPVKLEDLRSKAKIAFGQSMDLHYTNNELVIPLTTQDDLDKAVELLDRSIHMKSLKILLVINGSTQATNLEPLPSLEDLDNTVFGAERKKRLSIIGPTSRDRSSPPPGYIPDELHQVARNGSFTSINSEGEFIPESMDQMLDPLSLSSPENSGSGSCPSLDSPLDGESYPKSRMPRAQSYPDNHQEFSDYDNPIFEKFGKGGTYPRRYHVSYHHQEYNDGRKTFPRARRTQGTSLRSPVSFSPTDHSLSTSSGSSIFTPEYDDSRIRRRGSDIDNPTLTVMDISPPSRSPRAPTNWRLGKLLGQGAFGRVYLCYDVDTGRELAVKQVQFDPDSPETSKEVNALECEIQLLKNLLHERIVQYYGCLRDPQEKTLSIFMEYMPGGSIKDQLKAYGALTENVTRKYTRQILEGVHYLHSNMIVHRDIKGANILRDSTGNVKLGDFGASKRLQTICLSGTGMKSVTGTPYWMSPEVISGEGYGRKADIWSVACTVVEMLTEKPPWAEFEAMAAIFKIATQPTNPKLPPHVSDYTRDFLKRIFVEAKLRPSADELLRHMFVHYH
Test: inhibitors of MEK5 binding to MEKK2, dose response, biochemical, bead multiplex flow cytometry, wildtype (AID 1897)
Conditions: MEK5-MEKK2 PB1 binding
Calls of active or inactive are those of the source. The rule behind the calls is not given here.
Write down the outcome that applies. Available outcomes: t for active, f for inactive

Use these answered entries as a reference point.
CN1CCN(CC(=O)N2CCn3c4c(c5cc(C6CCCCC6)ccc53)CCCC42)CC1 (centres undefined); f
CCCCCCOc1ccc(/C(C)=N/NC2=NCCN2)cc1[N+](=O)[O-]; t
N=C(N)SCc1cn(-c2ccccc2)nc1-c1ccc(Br)cc1; t
COc1ccc(CNC[C@@H](CCCCN(C)Cc2ccc(OC)cc2)N2C[C@H](c3ccccc3)N(CCc3ccc(Cl)c(Cl)c3)C(=O)C2=O)cc1; t
C#CCOCCOCCOCCNc1nc(N2CCN(C(=O)[C@H](Cc3ccc(O)cc3)n3cc([C@@H](N)C(C)CC)nn3)CC2)nc(N2CCN(C(=O)[C@H](Cc3cc4ccccc4[nH]3)n3cc([C@@H](N)Cc4ccc(O)cc4)nn3)CC2)n1 (some centres undefined); t

For this molecule, state the assay outcome: `CCN1/C(=C/C(C)=C/c2sc3ccccc3[n+]2CC)Sc2ccccc21` t

How did this test come out for `CN1CCN(c2ccc(NC(=O)c3ccc(-c4ccc(Cl)cc4)o3)cc2)CC1` ? t

Could you please tell me the result logged for C#CCOCCOCCOCCNc1nc(N2CCN(C(=O)[C@H](Cc3cc4ccccc4[nH]3)n3cc([C@@H](N)C(C)CC)nn3)CC2)nc(N2CCN(C(=O)[C@H](Cc3cc4ccccc4[nH]3)n3cc([C@@H](N)CC(C)C)nn3)CC2)n1 (some centres undefined) in this assay? t

Hi, sorry to bother you, what did the test record for `OCCCCNCc1ccc(OCc2ccc(Cl)cc2Cl)cc1` ? f

* * *

Target: Mitogen-activated protein kinase kinase kinase 2 (Homo sapiens) + Dual specificity mitogen-activated protein kinase kinase 5 (Homo sapiens) (UniProt Q9Y2U5+Q13163)
Test: inhibitors of MEK5 binding to MEKK2, dose response, biochemical, bead multiplex flow cytometry, wildtype (AID 1897)
Conditions: MEK5-MEKK2 PB1 binding
Activity calls are given as the source filed them. The rule behind the calls is not given here.
Respond using exactly one of the listed classes: y = active, n = inactive

What call does the record list for `CCN(CC)CCNC(=O)c1ccc(NC(=O)c2cn(-c3ccccc3)nc2-c2cccs2)cc1` ? y

Given `COc1cc2nc(N3CCN(c4cc(C)ccc4C)CC3)nc(N)c2cc1OC` , state the outcome it received in this test. y

Returns: the outcome recorded for CCCCCc1cc(=O)oc2c(C(CCN3CCCC3)c3ccc(N(C)C)cc3)c(OC)cc(OC)c12 (centres undefined) in this assay. y

In this assay, the call recorded for `CCN1CCN(Cc2ccc(NC(=O)c3cc(NC(=O)c4cnn(-c5ccccc5)c4N)cc(OC)c3)cc2C(F)(F)F)CC1` was what? n

What did this assay record as the result for `Cc1cc2ccccc2n1CCNC(=O)c1ccccc1` ? y

Please let me know the test result on file for `NC(N)=N/N=C/c1ccc(OCc2ccccc2Cl)cc1` . y

* * *

Target: Mitogen-activated protein kinase kinase kinase 2 (Homo sapiens) + Dual specificity mitogen-activated protein kinase kinase 5 (Homo sapiens) (UniProt Q9Y2U5+Q13163)
Assay: inhibitors of MEK5 binding to MEKK2, dose response, biochemical, bead multiplex flow cytometry, wildtype (AID 1897)
Details: MEK5-MEKK2 PB1 binding
The source made the active and inactive calls. The rule behind the calls is not given here.
Assay readout: EC50

These recorded examples may help you get a feel for the data.
CN(C)CCCNc1cc(C(C)(C)C)nc2c(-c3ccc(Cl)cc3)cnn12; 4.35 µM
CN(C)CCNc1ncnc2c1sc1nc(-c3ccccc3)c3c(c12)CCCC3; 3.37 µM
CCCN1C(=O)/C(=C\C=C2/Sc3ccccc3N2CC)SC1=S; 3.03 µM

Which EC50 value belongs to `C#CCOCCOCCOCCNc1nc(N2CCN(C(=O)[C@H](Cc3ccc(O)cc3)n3cc([C@@H](N)CC(C)C)nn3)CC2)nc(N2CCN(C(=O)[C@H](Cc3cc4ccccc4[nH]3)n3cc([C@@H](N)CC(C)C)nn3)CC2)n1` ? 5.14 µM

Recorded EC50 of `CCN1CCN(Cc2ccc(NC(=O)c3cc(NC(=O)C(=O)c4c[nH]c5ccccc45)cc(OC)c3)cc2C(F)(F)F)CC1` , please. 0.34 µM

Which EC50 value belongs to O=C(OCC1O[C@@H](OC(=O)c2cc(O)c(O)c(O)c2)[C@@H](OC(=O)c2cc(O)c(O)c(O)c2)[C@@H](OC(=O)c2cc(O)c(O)c(O)c2)[C@@H]1OC(=O)c1cc(O)c(O)c(O)c1)c1cc(O)c(O)c(O)c1 (stereo partly drawn) ? > 30 µM (inactive)

Give the measured EC50 of `COc1ccc2nc(C)cc(N/N=C/c3ccc(F)cc3)c2c1` . > 30 µM (inactive)

# query: EC50 of entry N#CC(C#N)=c1ccc2c(c1)N1C(c3ccccc3)=CC(c3ccccc3)C3CCCCC31N=2 (stereo not drawn) 1.95 µM

* * *

Target: Mitogen-activated protein kinase kinase kinase 2 (Homo sapiens) + Dual specificity mitogen-activated protein kinase kinase 5 (Homo sapiens) (UniProt Q9Y2U5+Q13163)
Assay: inhibitors of MEK5 binding to MEKK2, dose response, biochemical, bead multiplex flow cytometry, wildtype (AID 1897)
Conditions: MEK5-MEKK2 PB1 binding
Active and inactive are the calls of the source. No rule for the calls is given here.
Please state which outcome applies, choosing from active, inactive

Please review the entries below; each comes with its answer.
CS(=O)(=O)N1N=C(c2ccccc2)CC1c1ccc2c(c1)OCO2 (centres undefined); inactive
CN(C)c1ccc(/C=C/C=C2/SC(=S)N(c3ccccc3)C2=O)cc1; active

Call for entry `Nc1ccc2nc(-c3ccc(-c4nc5ccc(N)cc5[nH]4)cc3)[nH]c2c1` : inactive

Give the logged outcome of this assay for the following compound: C#CCOCCOCCOCCNc1nc(N2CCN(C(=O)C(Cc3ccc(O)cc3)n3cc(C(N)CC(C)C)nn3)CC2)nc(N2CCN(C(=O)C(Cc3cc4ccccc4[nH]3)n3cc(C(N)C(C)CC)nn3)CC2)n1 (centres undefined) inactive

Recorded call for `COc1ccc(Cn2c(SCc3ccc(C)cc3)nc3cc(OC)c(OC)cc3c2=N)cc1Cl` ? active

Any idea what this test logged for CCOC(=O)C1=C(c2ccccc2)NC(N)=NC1c1ccc(OCc2ccc(C(=O)OC)cc2)cc1 (centres undefined) ? inactive

What is the recorded call for this compound in the test? `COc1ccc(-n2nc3c(N)n[nH]c3cc2=O)cc1` active

Can you look up the reported call for `CCN1/C(=C/c2ccc3cc(C)ccc3[n+]2C)Sc2ccc3sccc3c21` for me? inactive

Look up the recorded call for CCCCCc1cc(=O)oc2c(C(CCN3CCCCC3)c3ccc4c(c3)OCO4)c(OC)cc(OC)c12 (centres undefined) in this test. inactive

* * *

Biological target: Mitogen-activated protein kinase kinase kinase 2 (Homo sapiens) + Dual specificity mitogen-activated protein kinase kinase 5 (Homo sapiens) (UniProt Q9Y2U5+Q13163)
Experiment: inhibitors of MEK5 binding to MEKK2, dose response, biochemical, bead multiplex flow cytometry, wildtype (AID 1897)
Settings: MEK5-MEKK2 PB1 binding
Active and inactive are the calls of the source. No rule for the calls is given here.
Log the outcome using a class from YES (active), NO (inactive)

CNC(=O)C(=O)Nc1c(C)cc(C)cc1C; NO
CC(C)N=c1cc2n(-c3ccc(Cl)cc3)c3ccccc3nc-2cc1Nc1ccc(Cl)cc1; NO
CCc1ccc(Nc2n[n+](-c3ccccc3)c(-c3ccc(OC)c(Br)c3)s2)cc1; YES
C#CCOCCOCCOCCNc1nc(N2CCN(C(=O)C([C@@H](C)CC)n3cc(C(N)COC(=O)C(F)(F)F)nn3)CC2)nc(N2CCN(C(=O)[C@H](CCCCN)n3cc(C(N)[C@H](C)CC)nn3)CC2)n1 (some centres not stated); NO
CN1C(=O)/C(=C\c2ccc(-c3ccccc3)o2)SC1=S; YES

Read the next record carefully.
What did the test return for `CCN1C(c2ccccc2)=C(c2ccccc2)S/C1=C/C=C1\SC(=S)N(C)C1=O` ? YES

* * *

Target: Mitogen-activated protein kinase kinase kinase 2 (Homo sapiens) + Dual specificity mitogen-activated protein kinase kinase 5 (Homo sapiens) (UniProt Q9Y2U5+Q13163)
Assay: inhibitors of MEK5 binding to MEKK2, dose response, biochemical, bead multiplex flow cytometry, wildtype (AID 1897)
Conditions: MEK5-MEKK2 PB1 binding
Activity calls are given as the source filed them. No rule for the calls is given here.
compounds and their reported EC50

// known answers, use as guide
COc1ccc2nc(C)cc(N/N=C/c3cccc(OC)c3O)c2c1; > 30 µM (inactive)
O=C(Nc1ccc(Cl)cn1)c1ccc2c(Cl)c3c(nc2c1)CCC3; > 30 µM (inactive)
C#CCOCCOCCOCCNc1nc(N2CCN(C(=O)[C@H]([C@@H](C)CC)n3cc([C@@H](N)CC(C)C)nn3)CC2)nc(N2CCN(C(=O)[C@H](Cc3cc4ccccc4[nH]3)n3cc([C@@H](N)CC(C)C)nn3)CC2)n1; 7.74 µM

Any idea what EC50 was measured for `CCc1ccc(-c2nn(-c3ccccc3)cc2CSC(=N)N)cc1` ? 5.12 µM

Would you kindly share the measured EC50 for `O=C(Nc1ccc(C2=NCCN2)cc1)c1ccc(C(=O)Nc2ccc(C3=NCCN3)cc2)c([N+](=O)[O-])c1` ? > 30 µM (inactive)
